Recorded inhibition values for a group of compounds are listed next.
- target of assay: Taste receptor type 2 member 39 (Homo sapiens)
- Sequence (whole entry): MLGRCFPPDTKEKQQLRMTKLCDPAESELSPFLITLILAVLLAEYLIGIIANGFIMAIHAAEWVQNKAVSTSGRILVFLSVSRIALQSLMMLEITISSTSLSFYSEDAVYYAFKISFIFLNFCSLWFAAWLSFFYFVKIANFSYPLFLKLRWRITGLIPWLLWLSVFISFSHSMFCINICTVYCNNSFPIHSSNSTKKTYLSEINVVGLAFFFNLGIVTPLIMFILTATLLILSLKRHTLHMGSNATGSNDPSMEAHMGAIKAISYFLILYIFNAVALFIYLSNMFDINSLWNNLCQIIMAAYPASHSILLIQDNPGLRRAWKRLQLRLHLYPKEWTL
- experiment summary: Inhibition of human TAS2R39 expressed in HEK293 cells coexpressing G-protein at 10 mM assessed as reduction in epicatechin gallate-induced intracellular calcium release by Fluo-4-AM dye based fluorescence assay relative to control
- Type: functional, cell-based
Write the answer as a number in %, unit excluded.

QUERY: Can you look up the measured inhibition of `O=C(O)Cc1ccc(O)cc1` for me?
RESULT: 20

Next:
QUERY: Can you look up the measured inhibition of `COc1ccc(/C=C/C(=O)O)c(OC)c1` for me?
RESULT: 40

QUERY: Can you look up the measured inhibition of `COc1ccc(C(=O)O)cc1OC` for me?
RESULT: 10

QUERY: Can you look up the measured inhibition of `COc1ccccc1/C=C/C(=O)O` for me?
RESULT: 0

QUERY: Can you look up the measured inhibition of `COc1ccccc1C(=O)O` for me?
RESULT: 10

QUERY: Can you look up the measured inhibition of `N[C@@H](Cc1ccccc1)C(=O)O` for me?
RESULT: 0
